- ASSAYED_SYSTEM: T1, cynomolgus PD-1 protein (construct not stated) (cynomolgus, UniProt B0LAJ3 25-170)
- T1 construct: not shown: tag or Fc carrier of the recombinant (Sino Biological) cynomolgus PD-1
- T1 sequence (B0LAJ3 entry or part of it limits assumed, form in doubt): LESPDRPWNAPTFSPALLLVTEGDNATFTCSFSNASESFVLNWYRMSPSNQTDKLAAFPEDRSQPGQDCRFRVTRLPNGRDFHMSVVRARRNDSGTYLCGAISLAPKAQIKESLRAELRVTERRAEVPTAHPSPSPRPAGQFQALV
- PROTOCOL_NOTES: ELISA, second round mutagenesis library screen; unit not given
// returns -1 unless Bmax is strictly below 1, in which case 1

binder="5C4 (antibody, V domains shown) VH: QVQLVQSGAEVKKPGSSVKVSCKASGFTFTTYYISWVRQAPGQGLEYLGYINMGSGGTNYNEKFKGRVTITADKSTSTAYMELSSLRSEDTAVYYCAILGYFDYWGQGTMVTVSS VL: DVVMTQSPLSLPVTLGQPASISCRSSQSLLDSDGQTYLYWFQQRPGQSPRRLIYLVSTLGSGVPDRFSGSGSGTDFTLKISRVEAEDVGVYYCMQLTHEPYTFGQGTKLEIK" answer_label=1
binder="2E5 (antibody, V domains shown) VH: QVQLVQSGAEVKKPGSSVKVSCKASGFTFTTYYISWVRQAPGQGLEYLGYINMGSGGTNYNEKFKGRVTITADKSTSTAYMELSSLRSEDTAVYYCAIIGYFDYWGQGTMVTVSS VL: DVVMTQSPLSLPVTLGQPASISCRSSQSLLDSDGGTYLYWFQQRPGQSPRRLIYLVSTLGSGVPDRFSGSGSGTDFTLKISRVEAEDVGVYYCMQLTHWPYTFGQGTKLEIK" answer_label=-1
binder="1H6 (antibody, V domains shown) VH: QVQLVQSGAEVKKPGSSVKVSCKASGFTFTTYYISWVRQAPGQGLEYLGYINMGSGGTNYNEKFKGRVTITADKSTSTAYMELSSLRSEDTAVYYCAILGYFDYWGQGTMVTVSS VL: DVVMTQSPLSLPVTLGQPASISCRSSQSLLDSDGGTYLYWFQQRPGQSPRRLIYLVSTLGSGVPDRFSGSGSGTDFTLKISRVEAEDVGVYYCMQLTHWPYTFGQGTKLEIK" answer_label=1
binder="2B1 (antibody, V domains shown) VH: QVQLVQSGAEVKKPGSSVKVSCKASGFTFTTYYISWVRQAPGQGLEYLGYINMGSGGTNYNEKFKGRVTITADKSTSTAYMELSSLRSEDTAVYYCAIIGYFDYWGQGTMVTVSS VL: DVVMTQSPLSLPVTLGQPASISCRSSQSLLDSDGNTYLYWFQQRPGQSPRRLIYLVSTLGSGVPDRFSGSGSGTDFTLKISRVEAEDVGVYYCMQLTHWPYTFGQGTKLEIK" answer_label=-1
binder="1G10 (antibody, V domains shown) VH: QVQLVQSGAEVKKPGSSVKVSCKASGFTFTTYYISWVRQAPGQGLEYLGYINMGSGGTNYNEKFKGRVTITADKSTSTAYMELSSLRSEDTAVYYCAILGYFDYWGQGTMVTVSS VL: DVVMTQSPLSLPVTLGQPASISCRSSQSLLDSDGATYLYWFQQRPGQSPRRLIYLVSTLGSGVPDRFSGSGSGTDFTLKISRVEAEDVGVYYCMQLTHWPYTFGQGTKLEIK" answer_label=-1
